# procedureText: In vitro release from addition-cured (Pt) LSR9-9508-30 matrix vaginal rings
# Type: physicochemical
# appliedConditions: LSR9-9508-30 matrix rings, 21-day study; non-micronized LNG, micronized EE, micronized ET
readoutKind: Total release, % of initial drug loading
Note: a bare number is incomplete; add the unit.

Solved cases below.
[
  {
    "compoundSmiles": "C#C[C@]1(O)CC[C@H]2[C@@H]3CCC4=CC(=O)CC[C@@H]4[C@H]3CC[C@@]21CC",
    "Total release, % of initial drug loading": "29%"
  },
  {
    "compoundSmiles": "C#C[C@]1(O)CC[C@H]2[C@@H]3CCC4=CC(=O)CC[C@@H]4[C@H]3C(=C)C[C@@]21CC",
    "Total release, % of initial drug loading": "23%"
  },
  {
    "compoundSmiles": "C#C[C@]1(O)CC[C@H]2[C@@H]3CCc4cc(O)ccc4[C@H]3CC[C@@]21C",
    "Total release, % of initial drug loading": "36%"
  }
]

Continue with the next molecule.
Reported Total release, % of initial drug loading ( Cc1cc(C)c(Nc2ccnc(Nc3ccc(C#N)cc3)n2)c(C)c1 ) = 41%
